Where do the numbers come from? From patent US20250304927A1.

List of Reduction in binding affinity of inhibitory peptide relative to WT values.
# target-desc: T1, thermostable variant of Streptomyces mobaraensis transglutaminase (Streptomyces mobaraensis, UniProt P81453 79-407)
# T1 sequence: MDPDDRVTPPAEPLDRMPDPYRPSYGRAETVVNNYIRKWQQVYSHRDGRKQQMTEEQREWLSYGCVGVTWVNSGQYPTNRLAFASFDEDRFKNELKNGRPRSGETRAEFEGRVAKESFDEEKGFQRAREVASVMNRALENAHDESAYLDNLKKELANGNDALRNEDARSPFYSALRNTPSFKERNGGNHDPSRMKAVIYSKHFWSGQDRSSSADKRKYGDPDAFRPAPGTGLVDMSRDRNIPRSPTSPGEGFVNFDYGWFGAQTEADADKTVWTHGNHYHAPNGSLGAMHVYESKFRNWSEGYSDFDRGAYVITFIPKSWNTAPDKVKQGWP
# run-description: cell-based or functional assay
measured-property: Reduction in binding affinity of inhibitory peptide relative to WT

| binder | reported-value |
| --- | --- |
| MDNGAGEETKSYANTYRLTADDVANINALNESAPAASSAGPSFRAP [pro-peptide variant E14N] | > 1.2 fold |
| MDNGAGEETRSYAETYRLTADDVANINALNESAPAASSAGPSFRAP [pro-peptide variant K10R] | > 1.2 fold |
| MDNGAGEETKSYAETYRLTADRVANINALNESAPAASSAGPSFRAP [pro-peptide variant D22R] | > 1.2 fold |
| MDNGAGEETKSYAETYRLTARDVANINALNESAPAASSAGPSFRAP [pro-peptide variant D21R] | > 5 fold |
| MDNGAGEEQKSYAETYRLTADDVANINALNESAPAASSAGPSFRAP [pro-peptide variant T9Q] | > 1.2 fold |
| MDNGAGEETKSYAETYRLTADDVANINALNESAPAASDAGPSFRAP [pro-peptide variant S38D] | > 1.2 fold |
| MDNGAGEETKSYAETYRKTADDVANINALNESAPAASSAGPSFRAP [pro-peptide variant L18K] | > 1.2 fold |
| MDNGAGEETKSYAETYRLTADDVANYNALNESAPAASSAGPSFRAP [pro-peptide variant I26Y] | > 1.2 fold |
| MDNGAGEETKGYAETYRLTADDVANINALNESAPAASSAGPSFRAP [pro-peptide variant S11G] | > 5 fold |
| MDNGAGEETKSYAETYRWTADDVANINALNESAPAASSAGPSFRAP [pro-peptide variant L18W] | > 1.2 fold |
| MDNGAGEETKDYAETYRLTADDVANINALNESAPAASSAGPSFRAP [pro-peptide variant S11D] | > 1.2 fold |
| MDNGAGEETKSYAETYRLTADGVANINALNESAPAASSAGPSFRAP [pro-peptide variant D22G] | > 1.2 fold |
